Target: NAD-dependent protein deacetylase sirtuin-2 (Homo sapiens)
Sequence (whole entry): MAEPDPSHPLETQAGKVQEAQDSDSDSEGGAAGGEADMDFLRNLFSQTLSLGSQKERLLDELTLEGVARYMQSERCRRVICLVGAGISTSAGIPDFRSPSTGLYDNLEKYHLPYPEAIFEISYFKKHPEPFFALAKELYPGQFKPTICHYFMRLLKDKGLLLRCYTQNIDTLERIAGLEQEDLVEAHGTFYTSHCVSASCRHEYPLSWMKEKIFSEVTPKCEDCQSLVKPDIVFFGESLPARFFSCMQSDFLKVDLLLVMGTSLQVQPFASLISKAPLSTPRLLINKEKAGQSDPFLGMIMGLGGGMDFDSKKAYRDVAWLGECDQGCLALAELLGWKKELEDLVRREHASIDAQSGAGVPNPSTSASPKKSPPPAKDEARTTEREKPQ
Test: Inhibition of human recombinant C-terminal His-tagged SIRT2 (50 to 356 residues) deacetylation activity in presence of substrate and NAD+ incubated for 60 mins measured after 90 mins by fluorescence assay
The source made the active and inactive calls. The rule behind the calls is not given here. Residues, ends and D or L forms follow the SMILES beside them. *: point of attachment. AMC = Cc1cc(=O)oc2cc(N*)ccc12; Cbz = O=C(OCc1ccccc1)*; Propionyl = CCC(=O)*; Butyryl = CCCC(=O)*; NHiPr = CC(C)N*
Outcome field: choose from True (active), False (inactive)

>>> classification("CC(=S)NCCCC[C@H](NC(=O)OCc1ccccc1)C(=O)N[C@@H](Cc1c[nH]c2ccccc12)C(=O)NC(C)C")
"False"
>>> classification("CC(=O)NCCCC[C@H](NC(=O)OCc1ccccc1)C(=O)N[C@@H](Cc1c[nH]c2ccccc12)C(=O)NC(C)C (Cbz-Lys(Ac)-Trp-NHiPr)")
"False"
>>> classification("CCC(=O)NCCCC[C@H](NC(=O)[C@H](CCCCN)NC(=O)[C@@H]1CCCN1C(=O)[C@H](CCC(N)=O)NC(C)=O)C(=O)Nc1ccc2c(C)cc(=O)oc2c1 (Ac-QPKK(Propionyl)-{AMC})")
"True"
>>> classification("CCC(=S)NCCCC[C@H](NC(=O)OCc1ccccc1)C(=O)N[C@@H](Cc1c[nH]c2ccccc12)C(=O)NC(C)C")
"False"
>>> classification("CCCC(=O)NCCCC[C@H](NC(=O)[C@H](CCCCN)NC(=O)[C@@H]1CCCN1C(=O)[C@H](CCC(N)=O)NC(C)=O)C(=O)Nc1ccc2c(C)cc(=O)oc2c1 (Ac-QPKK(Butyryl)-{AMC})")
"True"

Prompt: Call for entry CC(=O)NCCCC[C@H](NC(=O)[C@H](CCCCN)NC(=O)[C@@H]1CCCN1C(=O)[C@H](CCC(N)=O)NC(C)=O)C(=O)Nc1ccc2c(C)cc(=O)oc2c1 (Ac-QPKK(Ac)-{AMC}) :
Completion: True

* * *

molecular target: NAD-dependent protein deacetylase sirtuin-1 (Homo sapiens) (UniProt Q96EB6); assay: Inhibition of human N-terminal GST-tagged SIRT1 (193 to 741 residues) expressed in Escherichia coli preincubated with NAD+ for 30 mins using Ac-Gln-Pro-Lys-Lys(Ac)-AMC (oxo-10) as substrate at 1 to 100 uM measured after 90 mins by fluorescence assay; details: dose microM 1-100, time 120.0 min
Sequence (Q96EB6 whole entry, the tested form may be a part): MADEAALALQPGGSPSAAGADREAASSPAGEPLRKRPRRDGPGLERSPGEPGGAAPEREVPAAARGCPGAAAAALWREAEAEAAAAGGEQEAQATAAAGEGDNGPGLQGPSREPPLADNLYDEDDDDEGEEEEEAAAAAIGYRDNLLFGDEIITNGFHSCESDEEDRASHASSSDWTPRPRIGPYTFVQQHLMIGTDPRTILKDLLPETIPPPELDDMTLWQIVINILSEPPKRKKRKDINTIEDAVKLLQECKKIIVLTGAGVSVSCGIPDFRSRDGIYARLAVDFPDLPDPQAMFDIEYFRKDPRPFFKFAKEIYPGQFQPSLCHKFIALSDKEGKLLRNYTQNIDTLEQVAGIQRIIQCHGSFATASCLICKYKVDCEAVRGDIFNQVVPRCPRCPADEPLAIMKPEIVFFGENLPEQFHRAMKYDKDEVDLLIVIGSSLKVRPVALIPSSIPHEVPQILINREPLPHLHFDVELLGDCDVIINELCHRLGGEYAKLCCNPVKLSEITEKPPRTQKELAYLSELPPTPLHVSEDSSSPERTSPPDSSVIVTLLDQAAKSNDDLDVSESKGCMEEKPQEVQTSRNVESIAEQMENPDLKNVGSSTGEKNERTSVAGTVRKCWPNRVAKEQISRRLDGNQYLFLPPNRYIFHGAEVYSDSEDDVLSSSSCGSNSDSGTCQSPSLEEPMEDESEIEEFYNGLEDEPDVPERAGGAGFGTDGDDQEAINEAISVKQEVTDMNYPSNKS
Where a name gives a salt, the structure may show the parent alone. The source made the active and inactive calls. The rule behind the calls is not given here. Residues, ends and D or L forms follow the SMILES beside them. *: point of attachment. Cbz = O=C(OCc1ccccc1)*; Tfa = O=C(C(F)(F)F)*; NHiPr = CC(C)N*
quantity: inhibition

Past entries and their recorded results:
>>> result("CC(C)NC(=O)[C@H](Cc1c[nH]c2ccccc12)NC(=O)[C@H](CCCCNC(=O)C(F)F)NC(=O)OCc1ccccc1")
"inactive"
>>> result("CCCC(=S)NCCCC[C@H](NC(=O)OCc1ccccc1)C(=O)Nc1ccccc1")
"inactive"
>>> result("CCCCNC(=S)NCCCC[C@H](NC(=O)OCc1ccccc1)C(=O)N[C@@H](Cc1c[nH]c2ccccc12)C(=O)NC(C)C")
"Active"
>>> result("CNC(=S)NCCCC[C@H](NC(=O)OCc1ccccc1)C(=O)N[C@@H](Cc1c[nH]c2ccccc12)C(=O)NC(C)C")
"Active"
>>> result("CC(=S)NCCCC[C@H](NC(=O)OCc1ccccc1)C(=O)N[C@@H](Cc1c[nH]c2ccccc12)C(=O)NC(C)C")
"Active"

# map each molecule to its inhibition
1. CC(=S)NCCCC[C@H](NC(=O)OCc1ccccc1)C(=O)Nc1ccccc1
2. CC(C)NC(=O)[C@H](Cc1c[nH]c2ccccc12)NC(=O)[C@H](CCCCNC(=O)C(F)(F)F)NC(=O)OCc1ccccc1 (Cbz-Lys(Tfa)-Trp-NHiPr)
3. CC(C)NC(=O)[C@H](Cc1c[nH]c2ccccc12)NC(=O)[C@H](CCCCNC(N)=S)NC(=O)OCc1ccccc1

Completion:
["inactive", "inactive", "Active"]

* * *

assay: Metabolic stability of compound in human serum assessed as half life incubated for >10 mins measured after 90 mins by HPLC analysis; format: ADME, cell-free
Please provide measured half-life for the entries that follow.

>>> result("CC(C)NC(=O)[C@H](Cc1c[nH]c2ccccc12)NC(=O)[C@H](CCCCNC(N)=S)NC(=O)OCc1ccccc1")
"> 7 h"
>>> result("CNC(=S)NCCCC[C@H](NC(=O)OCc1ccccc1)C(=O)N[C@@H](Cc1c[nH]c2ccccc12)C(=O)NC(C)C")
"< 1 h"
>>> result("CCNC(=S)NCCCC[C@H](NC(=O)OCc1ccccc1)C(=O)N[C@@H](Cc1c[nH]c2ccccc12)C(=O)NC(C)C")
"< 1 h"

# map each compound to its half-life
1. CC(=S)NCCCC[C@H](NC(=O)OCc1ccccc1)C(=O)N[C@@H](Cc1c[nH]c2ccccc12)C(=O)NC(C)C
2. CCC(=S)NCCCC[C@H](NC(=O)OCc1ccccc1)C(=O)N[C@@H](Cc1c[nH]c2ccccc12)C(=O)NC(C)C

Completion:
["> 7 h", "7 h"]

* * *

biological target: NAD-dependent protein deacetylase sirtuin-3, mitochondrial (Homo sapiens) (UniProt Q9NTG7); assay: Inhibition of human recombinant N-terminal GST-tagged SIRT3 (102 to 399 residues) deacetylation activity in presence of substrate and NAD+ at 15 uM after 60 mins measured by reversed-phase UPLC-MS analysis relative to control
Sequence (Q9NTG7 whole entry, the tested form may be a part): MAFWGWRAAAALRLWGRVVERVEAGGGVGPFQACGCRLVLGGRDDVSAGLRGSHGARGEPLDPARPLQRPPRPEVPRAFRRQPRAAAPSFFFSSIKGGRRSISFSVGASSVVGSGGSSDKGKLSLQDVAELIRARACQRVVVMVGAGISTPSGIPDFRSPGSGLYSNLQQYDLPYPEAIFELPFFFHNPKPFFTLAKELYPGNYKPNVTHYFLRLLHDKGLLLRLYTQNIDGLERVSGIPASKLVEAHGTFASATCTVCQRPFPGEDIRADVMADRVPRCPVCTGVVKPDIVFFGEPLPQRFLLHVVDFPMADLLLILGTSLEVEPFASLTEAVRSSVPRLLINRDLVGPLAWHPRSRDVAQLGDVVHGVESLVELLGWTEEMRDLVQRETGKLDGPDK
Calls of active or inactive are those of the source. No cut-off for these calls is given here. Residues, ends and D or L forms follow the SMILES beside them. *: point of attachment. Cbz = O=C(OCc1ccccc1)*; NHiPr = CC(C)N*
quantity: inhibition

>>> result("CCCC(=S)NCCCC[C@H](NC(=O)OCc1ccccc1)C(=O)Nc1ccccc1")
"inactive"
>>> result("CC(=S)NCCCC[C@H](NC(=O)OCc1ccccc1)C(=O)Nc1ccccc1")
"inactive"
>>> result("CC(=O)NCCCC[C@H](NC(=O)OCc1ccccc1)C(=O)N[C@@H](Cc1c[nH]c2ccccc12)C(=O)NC(C)C (Cbz-Lys(Ac)-Trp-NHiPr)")
"54%"
>>> result("CCCC(=S)NCCCC[C@H](NC(=O)OCc1ccccc1)C(=O)N[C@@H](Cc1c[nH]c2ccccc12)C(=O)NC(C)C")
"inactive"

* * *

target: NAD-dependent protein deacetylase sirtuin-1 (Homo sapiens) (UniProt Q96EB6); assay: Inhibition of SIRT1 in HEK293 cells assessed as increase in p53 acetylation co-treated with TSA at 25 uM for 6 hrs by western blot analysis; format: cell-based
Structures can show the parent of a compound that is named as a salt. Activity calls are given as the source filed them. The calls are words filed in the database; no cut-off is given here. Residues, ends and D or L forms follow the SMILES beside them. *: point of attachment. Cbz = O=C(OCc1ccccc1)*; Tfa = O=C(C(F)(F)F)*; NHiPr = CC(C)N*
quantity: inhibition

Past entries and their recorded results:
>>> result("CC(C)NC(=O)[C@H](Cc1c[nH]c2ccccc12)NC(=O)[C@H](CCCCNC(=O)C(F)(F)F)NC(=O)OCc1ccccc1 (Cbz-Lys(Tfa)-Trp-NHiPr)")
"inactive"
>>> result("Cc1cc(C)nc(SCC(=O)Nc2ncc(Cc3cccc4ccccc34)s2)n1")
"inactive"
>>> result("NC(=O)C1CCCc2c1[nH]c1ccc(Cl)cc21 (stereo not given)")
"Active"
>>> result("CNC(=S)NCCCC[C@H](NC(=O)OCc1ccccc1)C(=O)N[C@@H](Cc1c[nH]c2ccccc12)C(=O)NC(C)C")
"Active"

Prompt: Given the compound CC(=S)NCCCC[C@H](NC(=O)OCc1ccccc1)C(=O)N[C@@H](Cc1c[nH]c2ccccc12)C(=O)NC(C)C , what is its reported inhibition?
Completion: Active

* * *

target: UniProtKB Q8IXJ6
quantity: pIC50
Give bare numbers, as −log10 of the molar value.

Prompt: Lab note: need pIC50 with UniProtKB Q8IXJ6 for entry CCCC(=S)NCCCC[C@H](NC(=O)OCc1ccccc1)C(=O)N[C@@H](Cc1c[nH]c2ccccc12)C(=O)NC(C)C , please look it up.
Completion: 6.36
